- assay explanation: ST_JUDE: Cytotoxicity using luciferase to measure ATP as an indicator of the viability of human epithelial hepatocellular carcinoma cells (HepG2)
- Assay type: toxicity, cell-based
pEC50: −log10 of the molar value.
pEC50 listing for selected molecules.

Worked set:
>>> endpoint_result("CCOc1cc2c(cc1OCC)C(c1cc(C)c(O)c(C)c1)NCC2 (stereo not given)")
"< 4.28"
>>> endpoint_result("CCN1/C(=C/c2cccc[n+]2C)Sc2ccc(OC)cc21")
"< 4.58"
>>> endpoint_result("COc1ccc(NC(=O)C2c3ccccc3C(=O)N(CC(C)C)C2c2cccs2)cc1 (stereo not given)")
"< 4.32"
>>> endpoint_result("CCCO/C(O)=C1\\C(C)=NC2=C(C(=O)CC(c3ccc(OC)c(OC)c3)C2)C1c1ccccc1OC (stereo not given)")
"< 4.33"
>>> endpoint_result("COc1ccc(O)c(CN2CCN(c3cc(C)ccc3C)CC2)c1")
"< 4.45"
>>> endpoint_result("CO/C(O)=C1\\C(C)=NC2=C(C(=O)CC(c3ccc(OC)c(OC)c3)C2)C1c1ccccc1F (stereo not given)")
"< 4.35"
>>> endpoint_result("CCOc1cc(C2CC(=O)NC3=C2C(=O)CC(c2cc(OC)ccc2OC)C3)ccc1O (stereo not given)")
"< 4.39"
>>> endpoint_result("CC(C)(C)c1cc(/N=N/C(=O)c2ccncc2)cc(C(C)(C)C)c1O")
"< 4.55"

-- ask Look up pEC50 for this molecule: CCO/C(O)=C1\C(C)=NC2=C(C(=O)CC(c3ccc(OC)c(OC)c3)C2)C1c1ccccc1Cl (stereo not given)
-- reply < 4.35

-- ask Look up pEC50 for this molecule: "CCc1ccc(Nc2cc(C)c3ccc(O)cc3n2)cc1"
-- reply 4.63

====

- Tested on: Trypanosoma brucei
- assay explanation: ST_JUDE: Cytotoxicity using luciferase to measure ATP as an indicator of the viability of Trypanosoma brucei
- Assay type: functional, organism-based
pEC50: −log10 of the molar value.
quantity: pEC50

>>> endpoint_result("CSc1ccc2ccccc2[n+]1C")
"< 4.45"
>>> endpoint_result("CCOc1ccccc1N1CCN(Cc2cc(Br)cc(OC)c2O)CC1")
"< 4.45"

Turning now to a further record.
-- ask Look up pEC50 for this compound: "Oc1ccc(Cl)cc1CN1CCN(c2cccc(C(F)(F)F)c2)CC1"
-- reply < 4.47

====

EC50 listing for selected compounds.
- assay explanation: ST_JUDE: Cytotoxicity using luciferase to measure ATP as an indicator of the viability of human epithelial embryonic kidney cells (HEK293)
- Format: toxicity, cell-based

>>> endpoint_result("CCCO/C(O)=C1\\C(C)=NC2=C(C(=O)CC(c3ccc(OC)cc3)C2)C1c1ccc([N+](=O)[O-])cc1 (stereo not given)")
"> 45.2 µM"
>>> endpoint_result("CCCO/C(O)=C1\\C(C)=NC2=C(C(=O)CC(c3ccc(OC)c(OC)c3)C2)C1c1cccc(Cl)c1 (stereo not given)")
"> 37.7 µM"
>>> endpoint_result("CC(C)c1ccc(NC(=O)/C=C/c2ccccc2Cl)cc1")
"> 40.7 µM"
>>> endpoint_result("Cc1ccc(C2CC(C(F)(F)F)n3nc(C(=O)N4CCN(C(c5ccccc5)c5ccccc5)CC4)cc3N2)cc1 (stereo not given)")
"> 42.7 µM"

-- ask Look up EC50 for this compound: "CC(C)c1ccc(S(=O)(=O)NC2=C/C(=N\c3ccc(O)cc3)C(=O)c3ccccc32)cc1"
-- reply 5.47 µM

-- ask Look up EC50 for this compound: CCN(CC)CCN1C(=O)c2ccccc2NC1c1ccc(Cl)cc1 (stereo not given)
-- reply > 42.9 µM

-- ask Look up EC50 for this compound: "CCc1ccc(S(=O)(=O)NC2=C/C(=N\c3ccccc3OC)C(=O)c3ccccc32)cc1"
-- reply 9.01 µM

-- ask Look up EC50 for this compound: Cc1ccc(C2(c3ccc(C)cc3)CC2C(=O)Nc2ccc([N+](=O)[O-])cc2O)cc1 (stereo not given)
-- reply 11.4 µM

-- ask Look up EC50 for this compound: CCOC(=O)c1cccc(NC(=O)CC2C(=O)N(c3ccc(F)cc3)C(=O)N2CCC(C)C)c1 (stereo not given)
-- reply > 43.4 µM

-- ask Look up EC50 for this compound: "CC(=O)N(C1=C(N(C)C)C(=O)c2ccccc2C1=O)c1ccc(F)cc1"
-- reply 7.54 µM

-- ask Look up EC50 for this compound: CC(C)CN1C(=O)c2ccccc2C(C(=O)Nc2cccc(C#N)c2)C1c1cccs1 (stereo not given)
-- reply > 46.8 µM

-- ask Look up EC50 for this compound: "CC[n+]1ccccc1C=Cc1ccc(N(C)C)cc1"
-- reply > 45.3 µM

Entry source: ChEMBL document CHEMBL1154198
